- system_name: GSK3B (Homo sapiens, UniProt P49841)
- Sequence (P49841 whole entry): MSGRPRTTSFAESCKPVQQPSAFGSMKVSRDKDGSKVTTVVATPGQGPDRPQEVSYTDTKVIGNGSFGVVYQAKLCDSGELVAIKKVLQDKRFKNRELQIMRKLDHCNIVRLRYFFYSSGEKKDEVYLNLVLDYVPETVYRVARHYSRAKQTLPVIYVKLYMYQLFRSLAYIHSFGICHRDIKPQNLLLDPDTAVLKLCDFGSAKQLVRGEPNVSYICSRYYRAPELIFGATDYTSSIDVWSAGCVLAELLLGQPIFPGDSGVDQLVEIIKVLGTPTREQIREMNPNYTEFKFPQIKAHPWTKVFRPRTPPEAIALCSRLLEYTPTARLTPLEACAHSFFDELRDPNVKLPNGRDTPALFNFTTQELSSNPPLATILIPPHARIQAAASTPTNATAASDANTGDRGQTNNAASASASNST

# molecule, system_name, quantity_unit, IC50
data = [
    ("CNC(=O)c1c[nH]c2ncc(-c3ccc(OCCN4CCC(c5ccccc5)C4)cc3)nc12 (racemic)", "GSK3B (Homo sapiens, UniProt P49841)", "nM", 283),
]

Just for reference, paper PMC12391391 is where these values come from.
